- target desc: HIS-AXL 473-End (Homo sapiens (Human))
- Sequence (P30530 473-894): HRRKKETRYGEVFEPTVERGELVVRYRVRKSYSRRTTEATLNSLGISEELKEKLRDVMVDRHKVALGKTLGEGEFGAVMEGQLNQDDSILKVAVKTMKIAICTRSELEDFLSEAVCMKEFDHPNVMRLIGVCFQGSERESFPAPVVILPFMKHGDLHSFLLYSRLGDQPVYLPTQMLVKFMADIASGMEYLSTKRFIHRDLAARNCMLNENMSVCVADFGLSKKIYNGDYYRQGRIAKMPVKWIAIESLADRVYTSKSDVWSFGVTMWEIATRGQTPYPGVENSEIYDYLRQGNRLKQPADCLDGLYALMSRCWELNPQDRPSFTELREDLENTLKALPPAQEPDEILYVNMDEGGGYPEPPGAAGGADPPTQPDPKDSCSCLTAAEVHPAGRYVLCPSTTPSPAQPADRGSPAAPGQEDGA
- protocol: AXL kinase homogeneous time resolved fluorescence (HTRF) binding assay
- test settings: 1 nM kinase, fluorescein-labeled kinase tracer at Kd, 60 minutes at room temperature
pIC50: −log10 of the molar value.
Cut-off 8 on pIC50, inclusive. At or above means T; below means F.

Tell me whether pIC50 is at least 8 here: CN(C)S(=O)(=O)c1ccc(Nc2cc(Oc3ccc(NC(=O)c4cn(C)c(=O)n(-c5ccc(F)cc5)c4=O)cc3F)ccn2)nc1
F

Tell me whether pIC50 is at least 8 here: CC(C)n1cc(C(=O)Nc2ccc(Oc3ccnc(Nc4ccnc(N5CCCC5)n4)c3)c(F)c2)c(=O)n(C23CC(C2)C3)c1=O
T

Tell me whether pIC50 is at least 8 here: CC(C)n1cc(C(=O)Nc2ccc(Oc3ccnc(Nc4ccc(S(=O)(=O)N(C)C)cn4)c3)c(F)c2)c(=O)n(-c2ccc(F)cn2)c1=O
T

Tell me whether pIC50 is at least 8 here: CC(C)n1cc(C(=O)Nc2ccc(Oc3ccnc(Nc4ccc(S(=O)(=O)N5CCOCC5)cn4)c3)c(F)c2)c(=O)n(-c2ccc(F)cc2)c1=O
F

Tell me whether pIC50 is at least 8 here: CC(C)n1cc(C(=O)Nc2ccc(Oc3ccnc(Nc4ccc(-c5nccs5)cn4)c3)c(F)c2)c(=O)n(-c2ccc(F)cc2)c1=O
F

###

Assay system HIS-AXL 473-End (Homo sapiens (Human)); read-out recorded as pIC50.
pIC50 (log units): -log10 of the concentration in mol/L.

Let me know recorded pIC50 for CC(C)n1cc(C(=O)Nc2ccc(Oc3ccnc(Nc4ccc(S(=O)(=O)N(C)C)cn4)c3)c(F)c2)c(=O)n(-c2ccc(F)c(F)c2)c1=O , thanks.
7.74

Let me know recorded pIC50 for COC[C@H](C)n1cc(C(=O)Nc2ccc(Oc3ccnc(Nc4ccc(S(=O)(=O)N(C)C)cn4)c3)c(F)c2)c(=O)n(-c2ccc(F)cc2)c1=O , thanks.
7.68

Let me know recorded pIC50 for CC(C)n1cc(C(=O)Nc2ccc(Oc3ccnc(Nc4ccc(C(F)F)cn4)c3)c(F)c2)c(=O)n(-c2ccc(F)cc2)c1=O , thanks.
7.82

Let me know recorded pIC50 for CC(C)n1cc(C(=O)Nc2ccc(Oc3ccnc(Nc4ccc(-n5ccnc5)cn4)c3)c(F)c2)c(=O)n(-c2ccc(F)cc2)c1=O , thanks.
8.25

Let me know recorded pIC50 for CC(C)n1cc(C(=O)Nc2ccc(Oc3ccnc(Nc4cnc(C#N)cn4)c3)c(F)c2)c(=O)n(-c2ccc(F)cc2)c1=O , thanks.
7.74

Let me know recorded pIC50 for CC(C)n1cc(C(=O)Nc2ccc(Oc3ccnc(Nc4ccnc(N5CCCC5)n4)c3)c(F)c2)c(=O)n(C2CCCCC2)c1=O , thanks.
7.21

Let me know recorded pIC50 for CS(=O)(=O)C1CCN(c2nccc(Nc3cc(Oc4ccc(NC(=O)c5cn(C6CC6)c(=O)n(-c6ccc(F)cc6)c5=O)cc4F)ccn3)n2)CC1 , thanks.
9.10

Let me know recorded pIC50 for CC(C)n1cc(C(=O)Nc2ccc(Oc3ccnc(Nc4ccc(S(=O)(=O)N(C)C)cn4)c3)c(F)c2)c(=O)n(C2CCCCC2)c1=O , thanks.
6.59

Let me know recorded pIC50 for CC(=O)c1ccc(-n2c(=O)c(C(=O)Nc3ccc(Oc4ccnc(Nc5ccc(S(=O)(=O)N(C)C)cn5)c4)c(F)c3)cn(C(C)C)c2=O)cc1 , thanks.
6.74

Let me know recorded pIC50 for Cc1ccc(Nc2cc(Oc3ccc(NC(=O)c4cn(C(C)C)c(=O)n(-c5ccc(F)cc5)c4=O)cc3F)ccn2)nc1Cl , thanks.
7.68

Let me know recorded pIC50 for CC(C)n1cc(C(=O)Nc2ccc(Oc3ccnc(Nc4ccnc(N5CCN(S(C)(=O)=O)CC5)n4)c3)c(F)c2)c(=O)n(-c2ccc(F)cc2)c1=O , thanks.
9.05

Let me know recorded pIC50 for CC(C)n1cc(C(=O)Nc2ccc(Oc3ccnc(Nc4ccnc(N5CCCC5)n4)c3)c(F)c2)c(=O)n(C(C)C)c1=O , thanks.
8.42

Let me know recorded pIC50 for COC(=O)c1ccc(Nc2cc(Oc3ccc(NC(=O)c4cn(C(C)C)c(=O)n(-c5ccc(F)cc5)c4=O)cc3F)ccn2)nc1 , thanks.
8.44

Ref: patent US20230339891A1
